Target: GBA3 (Homo sapiens, UniProt Q9H227)
Construct: expressed in transfected cells; host or cells: HEK293T GBA1/GBA2 KO, GBA3 overexpressed
Sequence (Q9H227 whole entry): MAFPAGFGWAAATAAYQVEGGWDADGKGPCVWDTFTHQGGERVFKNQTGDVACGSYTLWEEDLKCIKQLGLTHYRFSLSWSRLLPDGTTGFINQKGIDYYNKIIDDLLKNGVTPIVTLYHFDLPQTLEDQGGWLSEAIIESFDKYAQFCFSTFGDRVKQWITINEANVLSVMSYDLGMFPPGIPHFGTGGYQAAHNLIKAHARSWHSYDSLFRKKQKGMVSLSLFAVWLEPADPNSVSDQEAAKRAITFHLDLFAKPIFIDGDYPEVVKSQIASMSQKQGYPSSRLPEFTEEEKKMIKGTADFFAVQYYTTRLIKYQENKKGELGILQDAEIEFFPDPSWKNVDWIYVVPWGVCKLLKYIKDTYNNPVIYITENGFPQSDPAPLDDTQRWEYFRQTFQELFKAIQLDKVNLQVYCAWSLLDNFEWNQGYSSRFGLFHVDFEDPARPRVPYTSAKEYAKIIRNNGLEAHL
Experiment: 4MU fluorogenic substrate assay for apparent IC50, GBA3
Assay type: biochemical
Details: 30 min pre-incubation; 4MU-β-D-Glc
Source text: To identify an ABP that selectively labels human GBA2 over GBA1 and GBA3, a library of cyclophellitol-based ABPs with varying configurations (ESI Fig. S1 ^†) was screened for their selectivity towards human retaining β-glucosidases. For this purpose, we initially assessed the inhibition properties of the compounds using recombinant human GBA1 (rhGBA1, imiglucerase), lysates of cells overexpressing GBA2 or GBA3 (both in combination with knockout of the other retaining β-glucosidases). […]
pIC50: −log10 of the molar value.
Exercise: state measured pIC50 for each of the compounds provided.

compound	val
OC[C@@H]1[C@@H](O)[C@H](O)[C@@H]2N[C@H]12	< 4.30

// below: pIC50 requested for another compound
Please look up its pIC50: O=C(CCCC[C@@H]1SC[C@@H]2NC(=O)N[C@@H]21)NCc1cn(CCCCCCCCN2[C@@H]3[C@H](CO)[C@@H](O)[C@H](O)[C@@H]32)nn1 (some centres unmarked)
< 5.10
